target: Human Factor XIIa (Homo sapiens, UniProt P00748); construct: purchased Enzyme Research Laboratories; test: Factor XIIa inhibitory activity in vitro (fluorogenic substrate H-DPro-Phe-Arg-AFC); assay type: biochemical; conditions: 25° C., class symbols, read-out: Human FXIIa IC50
pIC50: −log10 of the molar value.
observable: pIC50

These recorded examples may help you get a feel for the data.
Dear colleague, please send me the reported pIC50 for CC(C)(C)OC(=O)N[C@H](CCc1ccccc1)C(=O)NCC(=O)NCc1ccc2c(N)nccc2c1 [Example 6.01] when you can.
4.40 to 5.00

Dear colleague, please send me the reported pIC50 for Nc1nccc2cc(CNC(=O)[C@H](Cc3ccc(F)c(F)c3)NC(=O)CCn3cncn3)ccc12 [Example 20.07] when you can.
4.40 to 5.00

Dear colleague, please send me the reported pIC50 for CC(C)N[C@H](CCCCN1CCCCC1)C(=O)N[C@@H](Cc1ccc(F)c(F)c1)C(=O)NCc1ccc2c(N)nccc2c1 [Example 12.03] when you can.
> 7.52

Dear colleague, please send me the reported pIC50 for Nc1nccc2cc(CNC(=O)[C@H](Cc3ccc(F)c(F)c3)NC(=O)c3ccno3)ccc12 [Example 0.30] when you can.
4.40 to 5.00

Dear colleague, please send me the reported pIC50 for Cc1nc2ccccc2n1CCC(=O)N[C@@H](Cc1ccc(F)c(F)c1)C(=O)NCc1ccc2c(N)nccc2c1 [Example 20.06] when you can.
4.40 to 5.00

Dear colleague, please send me the reported pIC50 for Nc1nccc2cc(CNC(=O)[C@H](Cc3ccc(F)c(F)c3)NC(=O)CCc3ccccc3)ccc12 [Example 0.46] when you can.
4.40 to 5.00

Next item in the queue.
Dear colleague, please send me the reported pIC50 for Nc1nccc2cc(CNC(=O)[C@H](Cc3ccc(F)c(F)c3)NC(=O)c3ccn4ncnc4n3)ccc12 [Example 0.93] when you can.
5.52 to 6.00

----------
molecular target: Human FXIa (Homo sapiens); construct: Human FXIa (Enzyme Research Laboratories) was incubated; purchased Enzyme Research Laboratories; assay: FXIa inhibitory activity in vitro (fluorogenic substrate Z-Gly-Pro-Arg-AFC), selectivity; format: biochemical; conditions: category scale, 25° C.
Sequence (P03951 388-625 limits assumed): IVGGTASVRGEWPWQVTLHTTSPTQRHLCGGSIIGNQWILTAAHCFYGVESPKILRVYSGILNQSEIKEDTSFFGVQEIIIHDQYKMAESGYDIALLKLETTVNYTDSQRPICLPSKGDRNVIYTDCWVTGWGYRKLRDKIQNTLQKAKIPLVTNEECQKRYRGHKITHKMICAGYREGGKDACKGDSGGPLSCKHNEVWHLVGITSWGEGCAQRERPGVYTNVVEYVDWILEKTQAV
Sequence (P03951 19-387 partner limits assumed): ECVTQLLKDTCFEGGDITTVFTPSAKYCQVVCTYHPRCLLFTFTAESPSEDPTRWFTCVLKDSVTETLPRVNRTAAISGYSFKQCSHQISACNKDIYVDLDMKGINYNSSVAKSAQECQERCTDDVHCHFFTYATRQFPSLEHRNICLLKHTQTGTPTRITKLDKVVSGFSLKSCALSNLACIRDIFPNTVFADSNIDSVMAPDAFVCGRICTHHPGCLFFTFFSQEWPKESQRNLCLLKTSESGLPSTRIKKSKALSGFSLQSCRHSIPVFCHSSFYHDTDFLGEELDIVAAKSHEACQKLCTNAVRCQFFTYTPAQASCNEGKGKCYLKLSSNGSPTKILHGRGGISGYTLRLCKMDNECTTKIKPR
pIC50: −log10 of the molar value.
observable: pIC50

Dear colleague, please send me the reported pIC50 for "N[C@H](CCCCN1CCc2ccccc21)C(=O)N1CC[C@H]1C(=O)NCc1ccc2[nH]cc(Cl)c2c1" when you can.
< 4.40

New cases:
Dear colleague, please send me the reported pIC50 for CCC(C)[C@@H](N)C(=O)N[C@H](CC1CCCC2CCCCC21)C(=O)NCc1ccc(C(=N)N)s1 (stereo partly drawn) when you can.
5.52 to 6.00

Dear colleague, please send me the reported pIC50 for "CC(C)c1cncc(C(=O)N[C@@H](Cc2ccc(F)c(F)c2)C(=O)NCc2ccc3c(N)nccc3c2)n1" when you can.
< 4.40

----------
molecular target: Human Factor XIIa (Homo sapiens); construct: purchased Enzyme Research Laboratories; test: Factor XIIa inhibitory activity in vitro (fluorogenic substrate H-DPro-Phe-Arg-AFC); type: biochemical; conditions: 25° C., class symbols, read-out: Human FXIIa IC50
observable: IC50

These recorded examples may help you get a feel for the data.
Dear colleague, please send me the reported IC50 for "CC(C)n1cc(C(=O)N[C@@H](Cc2ccc(F)c(F)c2)C(=O)NCc2ccc3c(N)nccc3c2)ccc1=O" when you can.
1 to 3 µM

Dear colleague, please send me the reported IC50 for "Nc1nccc2cc(CNC(=O)[C@H](Cc3ccc(F)c(F)c3)NC(=O)c3cccc(O)n3)ccc12" when you can.
1 to 3 µM

Dear colleague, please send me the reported IC50 for "Nc1nccc2cc(CNC(=O)[C@H](Cc3ccc(F)c(F)c3)NC(=O)c3ccccc3N3CCOCC3)ccc12" when you can.
10 to 40 µM

Dear colleague, please send me the reported IC50 for "Nc1nccc2cc(CNC(=O)[C@H](Cc3ccc(F)c(F)c3)NC(=O)C(F)F)ccc12" when you can.
3 to 10 µM

Dear colleague, please send me the reported IC50 for "Nc1nccc2cc(CNC(=O)[C@H]3CCC[C@@H]3NC(=O)[C@H](N)CCc3ccccc3)ccc12" when you can.
10 to 40 µM

Next item in the queue.
Dear colleague, please send me the reported IC50 for "C[C@@H]1CCC[C@H](C)N1CC(=O)N[C@@H](Cc1ccc(F)cc1)C(=O)NCc1ccc2c(N)nccc2c1" when you can.
0.1 to 0.279 µM

----------
molecular target: Human Factor XIIa (Homo sapiens, UniProt P00748); construct: purchased Enzyme Research Laboratories; assay: Factor XIIa inhibitory activity in vitro (fluorogenic substrate H-DPro-Phe-Arg-AFC); assay type: biochemical; conditions: 25° C., class symbols, read-out: Human FXIIa IC50
observable: IC50

These recorded examples may help you get a feel for the data.
Dear colleague, please send me the reported IC50 for "Nc1nccc2cc(CNC(=O)[C@H](Cc3ccc(F)c(F)c3)NC(=O)CCn3cnc4ccccc43)ccc12" when you can.
10 to 40 µM

Dear colleague, please send me the reported IC50 for "Cc1nn(C)c(C)c1CCC(=O)N[C@@H](Cc1ccc(F)c(F)c1)C(=O)NCc1ccc2c(N)nccc2c1" when you can.
10 to 40 µM

Next item in the queue.
Dear colleague, please send me the reported IC50 for "Cc1ccc(CN(C)CC(=O)N[C@@H](Cc2ccc(F)c(F)c2)C(=O)NCc2ccc3c(N)nccc3c2)cc1" when you can.
10 to 40 µM

----------
Target: Human Factor XIIa (Homo sapiens, UniProt P00748)
Construct: purchased Enzyme Research Laboratories
Sequence (P00748 373-615 limits assumed): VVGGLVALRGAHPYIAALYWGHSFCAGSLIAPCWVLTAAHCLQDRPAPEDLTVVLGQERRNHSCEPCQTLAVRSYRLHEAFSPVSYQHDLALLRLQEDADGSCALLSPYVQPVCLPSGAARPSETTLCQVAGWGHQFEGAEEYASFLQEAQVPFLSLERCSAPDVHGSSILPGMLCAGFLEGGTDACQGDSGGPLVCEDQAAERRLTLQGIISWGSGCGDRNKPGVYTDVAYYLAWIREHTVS
Experiment: Factor XIIa inhibitory activity in vitro (fluorogenic substrate H-DPro-Phe-Arg-AFC)
Type: biochemical
Conditions: 25° C., class symbols, read-out: Human FXIIa IC50
pIC50: −log10 of the molar value.
The entries below come with measured pIC50 values attached.

These recorded examples may help you get a feel for the data.
Dear colleague, please send me the reported pIC50 for Nc1nccc2cc(CNC(=O)CNC(=O)C(CCc3ccccc3)N3CCNCC3)ccc12 (centres unmarked) [Example 18.109] when you can.
4.40 to 5.00

Dear colleague, please send me the reported pIC50 for C[C@H]1CC[C@H](C)N1CC(=O)N[C@@H](Cc1ccc(F)c(F)c1)C(=O)NCc1ccc2c(N)nccc2c1 [Example 3.19] when you can.
6.00 to 6.55

New cases:
Dear colleague, please send me the reported pIC50 for CC1CCCC(C)N1CC(=O)N[C@@H](Cc1ccc(F)c(F)c1)C(=O)NCc1ccc2c(N)nccc2c1 (some centres unmarked) [Example 3.01] when you can.
6.55 to 7.00

Dear colleague, please send me the reported pIC50 for N#Cc1cccc(C(=O)N[C@@H](Cc2ccc(F)c(F)c2)C(=O)NCc2ccc3c(N)nccc3c2)c1 [Example 0.25] when you can.
5.00 to 5.52

Dear colleague, please send me the reported pIC50 for C[C@@H]1CCC[C@H](C)N1CC(=O)N[C@@H](CC1CCCCC1)C(=O)NCc1ccc2c(N)nccc2c1 [Example 3.16] when you can.
5.00 to 5.52

----------
Target: Human Factor XIIa (Homo sapiens, UniProt P00748)
Construct: purchased Enzyme Research Laboratories
Sequence (P00748 373-615 limits assumed): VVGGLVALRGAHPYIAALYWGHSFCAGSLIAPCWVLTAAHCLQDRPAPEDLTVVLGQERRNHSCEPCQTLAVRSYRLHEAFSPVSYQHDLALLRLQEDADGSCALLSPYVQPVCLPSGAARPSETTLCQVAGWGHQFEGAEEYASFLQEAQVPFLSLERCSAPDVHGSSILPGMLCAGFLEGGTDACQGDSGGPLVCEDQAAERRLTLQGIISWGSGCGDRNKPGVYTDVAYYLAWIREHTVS
Test: Factor XIIa inhibitory activity in vitro (fluorogenic substrate H-DPro-Phe-Arg-AFC)
Type: biochemical
Settings: 25° C., class symbols, read-out: Human FXIIa IC50
Description: Determination of the % Inhibition for FXIIa Human Factor XIIa (Enzyme Research Laboratories) was incubated at 25° C. with the fluorogenic substrate H-DPro-Phe-Arg-AFC and various concentrations of the test compound. Residual enzyme activity (initial rate of reaction) was determined by measuring the change in […] at 410 nm and the IC50 value for the test compound was determined.
observable: IC50

These recorded examples may help you get a feel for the data.
Dear colleague, please send me the reported IC50 for "C[C@H](NC(=O)[C@H](N)CCc1ccccc1)C(=O)NCc1ccc2c(N)nccc2c1" when you can.
0.1 to 0.279 µM

Dear colleague, please send me the reported IC50 for "COc1cnccc1C(=O)N[C@@H](Cc1ccc(F)c(F)c1)C(=O)NCc1ccc2c(N)nccc2c1" when you can.
10 to 40 µM

Dear colleague, please send me the reported IC50 for "COc1ccc(OCCC(=O)N[C@@H](Cc2ccc(F)c(F)c2)C(=O)NCc2ccc3c(N)nccc3c2)cc1" when you can.
10 to 40 µM

New cases:
Dear colleague, please send me the reported IC50 for Cc1ccc2cc(C(=O)N3CCC(C(=O)NCc4ccc5c(N)nccc5c4)C3)ccc2n1 (centres unmarked) when you can.
10 to 40 µM

Dear colleague, please send me the reported IC50 for "N[C@H](CCCCN1Cc2ccccc2C1)C(=O)N1CC[C@H]1C(=O)NCc1ccc2[nH]cc(Cl)c2c1" when you can.
1 to 3 µM

Dear colleague, please send me the reported IC50 for "CC(C)N[C@H](CCc1ccccc1)C(=O)N[C@@H](C)C(=O)NCc1cc2c(N)nccc2o1" when you can.
0.1 to 0.279 µM

Dear colleague, please send me the reported IC50 for "Cn1cc(C(=O)N[C@@H](Cc2ccc(F)c(F)c2)C(=O)NCc2ccc3c(N)nccc3c2)ccc1=O" when you can.
3 to 10 µM

Dear colleague, please send me the reported IC50 for "Nc1nccc2cc(CNC(=O)[C@H](Cc3ccc(F)c(F)c3)NC(=O)c3cc4ccccc4[nH]3)ccc12" when you can.
10 to 40 µM

Dear colleague, please send me the reported IC50 for "CC(C)c1nc(C(=O)N[C@@H](Cc2ccc(F)c(F)c2)C(=O)NCc2ccc3c(N)nccc3c2)cs1" when you can.
10 to 40 µM

Dear colleague, please send me the reported IC50 for "C[C@H](NC(=O)[C@H](N)CCc1ccccc1)C(=O)NCc1cc2c(N)nccc2s1" when you can.
0.1 to 0.279 µM

Dear colleague, please send me the reported IC50 for "Cc1cnc(C(=O)N[C@@H](Cc2ccc(F)c(F)c2)C(=O)NCc2ccc3c(N)nccc3c2)cn1" when you can.
3 to 10 µM
